# EXPERIMENTAL DETAILS: chemical genetic growth profiling, strain panel (AID 1159580);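 also: tested at 20 µM; growth read once vehicle control cultures reached saturation at 30 °C; 1 = growth at the plate median or of vehicle wells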
# TEST PARAMETERS: S. cerevisiae deletion strains, growth OD, locus YCL016C, strain dcc1, stronger effect = lower value
The whole screen tested about 5,500 compounds, of which about 2,000 (36%) were called active. Inconclusive results (about 18%) are left out. The list shows a part of the results.
Collected normalized growth values appear next to each entry.
MEASURE: normalized growth

COMPOUND	REPORTED RESULT
CCN(CC)CCNc1ccc(CO)c2sc3ccccc3c(=O)c12	1 (inactive)
C[n+]1cc2c3c(ccc2c2ccc4cc5c(cc4c21)OCO5)OCO3	0.535 (active)
COc1c2c(cc3c1OCO3)CC[N+](C)=C2	0.974 (inactive)
CC(=O)O.CC(=O)O.[Cd]	0.754 (active)
CC1(C)O[C@@H]2CC3C4C[C@H](F)C5=CC(=O)C=C[C@]5(C)[C@@]4(F)[C@@H](O)C[C@]3(C)[C@]2(C(=O)CO)O1 (stereo partly specified)	1.02 (inactive)
CCCCOc1cc(CC2CNC(=O)N2)ccc1OC (stereo unspecified)	1 (inactive)
Nc1nnc(-c2cccc(Cl)c2Cl)c(N)n1	1.01 (inactive)
O=C1c2c(O)ccc(O)c2C(=O)c2c(NCCNCCO)ccc(NCCNCCO)c21	0.385 (active)
COc1ccc2cc3[n+](cc2c1OC)CCc1cc2c(cc1-3)OCO2	0.982 (inactive)
COc1cc2c(cc1OC)-c1cc3ccc(OC)c(OC)c3c[n+]1CC2	0.978 (inactive)
O=C1CN2Cc3c(ccc(Cl)c3Cl)N=C2N1	0.978 (inactive)

###

# EXPERIMENTAL DETAILS: chemical genetic growth profiling, strain panel (AID 1159580);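 also: tested at 20 µM; growth read once vehicle control cultures reached saturation at 30 °C; 1 = growth at the plate median or of vehicle wells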
# TEST PARAMETERS: S. cerevisiae deletion strains, growth OD, locus YGR078C, strain PAC10
About 2,000 (36%) of roughly 5,500 compounds were called active. Roughly 18% stayed inconclusive and do not appear here. No stated cut-off is given here; in the data, active means normalized growth mostly below about 0.91 (no sharp cut-off); inconclusive means no clear call, values can overlap the other calls; inactive means mostly above about 0.92. Some of the results follow.
Outcome codes: active, inactive

COMPOUND	CLASSIFICATION
O=C1CCCc2c1nc(-c1ccccc1)n2O	inactive
CCNC(=O)[C@H]1O[C@@H](n2cnc3c(N)nc(NCCc4ccc(CCC(=O)O)cc4)nc32)C(O)[C@H]1O (some centres not stated)	inactive
O=C(O)c1nc2cc(Cl)c(Cl)cc2[nH]c1=O	inactive
O=C(Nc1ccccc1SCc1cccc(C(F)(F)F)c1)c1c(F)cccc1Cl	inactive
NCCNC(=O)Cc1ccc(NC(=O)Cc2ccc(Nc3ncnc4c3ncn4[C@@H]3O[C@H](CO)[C@H](O)C3O)cc2)cc1 (some centres not stated)	inactive
COC(=O)C[C@H]1C(C)(C)C(=O)[C@@H]2CC3=C4CC(OC)O[C@@H](c5ccoc5)[C@]4(C)CCC3[C@@]1(C)C2=O (some centres not stated)	inactive
COc1ccc(-c2cc(=O)c3cc(OC)ccc3o2)cc1	inactive
CC(C)[C@]12O[C@H]1[C@@H]1O[C@@]13[C@@]1(C)CCC4=C(COC4=O)[C@@H]1C[C@@H]1O[C@@]13C2=O	inactive
CC(=O)c1csc(-c2ccc(C(F)(F)F)cc2)n1	inactive
Cc1ccc(COc2ccc(C)nc2[N+](=O)[O-])cc1	active
CCN(CC)CCNc1ccc(CO)c2sc3ccccc3c(=O)c12	inactive
Cn1c(=O)c2[nH]c(C3CCCC3)nc2n(C)c1=O	inactive
CO[C@H]1CC=C2CCN3CCC4=C(CC(=O)OC4)[C@]23C1	inactive
C[n+]1cc2c3c(ccc2c2ccc4cc5c(cc4c21)OCO5)OCO3	active
Cc1nc2c(OCc3ccccc3)cccn2c1CC#N	inactive
CC(C)(C)C(=O)N1CCN(c2ncccc2C(F)(F)F)CC1	inactive
COC(=O)c1cn(Cc2ccc(C(F)(F)F)cc2)cc(F)c1=O	inactive
O=C(c1cc(O)c(O)c([N+](=O)[O-])c1)c1ccccc1F	inactive
NCCCCNS(=O)(=O)c1cccc2c(Cl)cccc12	inactive
CCOC(=O)c1c(SC)[nH]c2c(C(F)(F)F)cccc2c1=O	inactive
CC1=NCCc2c1[nH]c1cc(O)ccc21	inactive
N#CC1COc2ccccc2O1 (configuration not stated)	inactive
O=C(O)C1CN(CCCP(=O)(O)O)CCN1 (configuration not stated)	inactive
CSc1ccc(C(=O)O)s1	active
CN1CCc2c(c3ccccc3n2Cc2ccccc2)C1	inactive
COC(=O)C1=C(Nc2ccc(Cl)cc2)CSC1	inactive
COc1ccc(-c2coc3cc(OC)cc(O)c3c2=O)cc1	inactive
CSc1nc(N)nc(C(C)(C)C)n1	inactive
Cc1onc(-c2c(Cl)cccc2Cl)c1C(=O)N1CCN(c2ncccc2C(F)(F)F)CC1	inactive
N/C(=N/OS(=O)(=O)c1ccc(Cl)cc1)c1ccc(C(F)(F)F)cc1	inactive
FC(F)(F)c1ccc(-c2nc(-c3ccc4c(c3)OCCCO4)cs2)cc1	inactive
COc1c2c(cc3c1OCO3)CC[N+](C)=C2	inactive
C[C@@H]1C(=O)NC2=Nc3cccc(Cl)c3CN21	inactive
Nc1ccc(N2C(=O)c3ccccc3C2=O)c(Cl)c1	inactive
COc1cc2c(cc1OC)-c1cc3ccc(OC)c(OC)c3c[n+]1CC2	inactive
COc1cc2cc[n+]3cc4c(OC)c(OC)ccc4cc3c2cc1OC	inactive
CC(C)c1ccc2c(c1O)CC[C@H]1C3=C(CC[C@]21C)C(=O)OC3	active
Nc1ccn([C@H]2CC[C@@H](CO)O2)c(=O)n1	inactive
COc1ccc2c(c[n+](C)c3c4cc5c(cc4ccc23)OCO5)c1OC	active
O=c1[nH]c2cc([N+](=O)[O-])c([N+](=O)[O-])cc2[nH]c1=O	inactive
NC(=O)CC[C@@H](N)C(=O)O	inactive
COc1ccc2cc3[n+](cc2c1OC)CCc1cc2c(cc1-3)OCO2	active
